Data provenance is the supplement of paper PMC8671470.

- Test system: SHI-1
- Protocol Notes: cell viability (% survival relative to DMSO control, bortezomib = 0%); higher = less cytotoxic
- Setup Conditions: 100 nM; 72 h
Parameter Measured: cell viability (%)

- Molecule: "CCCCCCCCCCCC(=O)c1c(O)c(C(=O)CCCCCCCCCCC)c(O)c(C2CC(c3ccc(O)cc3)Oc3cc(O)ccc32)c1O (configuration not stated)"
  Parameter Measured: "cell viability"
  Observed Result: 102
- Molecule: "CC(C)c1nc(CN(C)C(=O)N[C@H](C(=O)N[C@@H](Cc2ccccc2)C[C@H](O)[C@H](Cc2ccccc2)NC(=O)OCc2cncs2)C(C)C)cs1"
  Parameter Measured: "cell viability"
  Observed Result: 109
- Molecule: "CCOP(=O)(OCC)C(=Cc1cc(C(C)(C)C)c(O)c(C(C)(C)C)c1)P(=O)(OCC)OCC"
  Parameter Measured: "cell viability"
  Observed Result: 123
- Molecule: "O=C(O)CCCCC(CCSCc1ccccc1)SCc1ccccc1 (configuration not stated)"
  Parameter Measured: "cell viability"
  Observed Result: 108
- Molecule: "CC(C)(C#N)c1cc(Cn2cncn2)cc(C(C)(C)C#N)c1"
  Parameter Measured: "cell viability"
  Observed Result: 102
- Molecule: "CCN(CC)CCCC(C)Nc1ccnc2cc(Cl)ccc12 (configuration not stated)"
  Parameter Measured: "cell viability"
  Observed Result: 96.6
- Molecule: "CCCCCCCCCCC[C@@H](C[C@@H]1OC(=O)[C@H]1CCCCCC)OC(=O)[C@H](CC(C)C)NC=O"
  Parameter Measured: "cell viability"
  Observed Result: 106
- Molecule: "COc1cc(/C=C/C(=O)N2CCC=CC2=O)cc(OC)c1OC"
  Parameter Measured: "cell viability"
  Observed Result: 106
- Molecule: "Cc1coc2c1C(=O)C(=O)c1c-2ccc2c1CCCC2(C)C"
  Parameter Measured: "cell viability"
  Observed Result: 98.8
- Molecule: "NS(=O)(=O)c1ccc([N+](=O)[O-])cc1 [4-Nitrobenzenesulfonamide]"
  Parameter Measured: "cell viability"
  Observed Result: 102
- Molecule: "Nc1ccccc1C(=O)C[C@H](N)C(=O)O"
  Parameter Measured: "cell viability"
  Observed Result: 90.6
- Molecule: "O=C(O)C[C@@]1(O)C[C@@H](CCCCCCc2ccc(Cl)cc2Cl)OC1=O"
  Parameter Measured: "cell viability"
  Observed Result: 98.4
- Molecule: "COC(=O)[C@]12CCC(C)(C)C[C@H]1[C@H]1C(=O)C=C3[C@@]4(C)C=C(C#N)C(=O)C(C)(C)[C@@H]4CC[C@@]3(C)[C@]1(C)CC2"
  Parameter Measured: "cell viability"
  Observed Result: 118
- Molecule: "C=C(C)[C@H]1Cc2c(ccc3c2O[C@@H]2COc4cc(OC)c(OC)cc4[C@@H]2C3=O)O1"
  Parameter Measured: "cell viability"
  Observed Result: 73.7
- Molecule: "O=C(NNc1ccccc1)c1ccncc1"
  Parameter Measured: "cell viability"
  Observed Result: 93
- Molecule: "NC(=O)c1cccc(-c2cccc(OC(=O)NC3CCCCC3)c2)c1"
  Parameter Measured: "cell viability"
  Observed Result: 89.4
- Molecule: "O=C(NCCCCCCNC(=O)ONC1=CCCCC1)ONC1=CCCCC1"
  Parameter Measured: "cell viability"
  Observed Result: 112
